Data origin: patent US20040138109A1

# system-tested: NS3 serine protease of HCV genotype 1a (Hepatitis C virus genotype 1a)
# Sequence (P27958 1027-1657): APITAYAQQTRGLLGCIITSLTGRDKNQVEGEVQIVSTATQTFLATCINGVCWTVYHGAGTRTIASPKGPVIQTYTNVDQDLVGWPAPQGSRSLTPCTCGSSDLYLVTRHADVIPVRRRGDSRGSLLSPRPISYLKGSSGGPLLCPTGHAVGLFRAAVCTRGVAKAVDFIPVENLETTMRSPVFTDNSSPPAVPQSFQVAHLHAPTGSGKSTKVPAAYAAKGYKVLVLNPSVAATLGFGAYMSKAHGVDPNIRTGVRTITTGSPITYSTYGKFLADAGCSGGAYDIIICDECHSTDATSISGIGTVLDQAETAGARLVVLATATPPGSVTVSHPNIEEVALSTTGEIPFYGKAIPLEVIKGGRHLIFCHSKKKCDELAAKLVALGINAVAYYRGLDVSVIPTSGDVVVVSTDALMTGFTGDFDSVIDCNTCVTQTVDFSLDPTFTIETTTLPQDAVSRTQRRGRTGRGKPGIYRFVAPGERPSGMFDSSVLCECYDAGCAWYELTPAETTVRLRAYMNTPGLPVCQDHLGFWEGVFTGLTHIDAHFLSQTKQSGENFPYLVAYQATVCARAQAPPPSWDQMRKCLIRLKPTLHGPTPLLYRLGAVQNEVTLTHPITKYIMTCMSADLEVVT
# Sequence (P27958 1658-1711): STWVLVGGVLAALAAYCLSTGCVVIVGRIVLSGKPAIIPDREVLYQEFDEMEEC
# procedure-summary: Steady state velocity analysis with NS3 serine protease, HCV genotype 1a
# applied-conditions: non-covalent, competitive mode of inhibition, read-out: Inhibitor constant (Ki)
attribute-measured: pKi
For clarity, pKi is expressed as the negative log10 of concentration in mol/L.

Return reported pKi; argument: COc1ccc2c(O[C@@H]3C[C@H]4C(=O)N[C@]5(C(=O)O)C[C@H]5/C=C\CCCCC[C@H](NC(=O)OC5CCCC5)C(=O)N4C3)cc(-c3csc(NC(C)C)n3)nc2c1 [Compound (1)]
9.52
